Biological target: Mycobacterium thermoresistible (Mtr) LpqY (Mycolicibacterium thermoresistibile, UniProt G7CES0)
Sequence (G7CES0 29-471): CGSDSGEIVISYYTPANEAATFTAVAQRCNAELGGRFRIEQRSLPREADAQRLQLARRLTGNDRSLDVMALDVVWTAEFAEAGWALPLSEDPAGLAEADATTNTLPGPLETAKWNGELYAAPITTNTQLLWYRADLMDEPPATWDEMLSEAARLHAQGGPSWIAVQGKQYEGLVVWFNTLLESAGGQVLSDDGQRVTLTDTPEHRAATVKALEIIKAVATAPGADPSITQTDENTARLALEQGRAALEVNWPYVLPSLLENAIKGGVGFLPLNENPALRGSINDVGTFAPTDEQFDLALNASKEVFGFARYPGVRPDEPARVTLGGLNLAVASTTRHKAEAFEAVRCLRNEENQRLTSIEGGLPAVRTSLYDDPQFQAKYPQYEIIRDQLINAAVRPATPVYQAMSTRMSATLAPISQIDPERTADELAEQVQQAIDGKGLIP
Type: binding
Conditions: single dose MST screen against LpqY
assay-metric: Pathogen Box screen signal/noise ratio
Lab note: record the figure alone, no unit after it.

Use these answered entries as a reference point.
{"structure-smiles-string": "NS(=O)(=O)c1cccc(-c2ccc3ncc(N4CCOCC4)nc3c2)c1", "val": 1.6}
{"structure-smiles-string": "O=C(NCc1cc(Cl)cc(Cl)c1)c1c(C(F)(F)F)nc2ccccn12", "val": 0.8}
{"structure-smiles-string": "CC(=O)OC[C@H]1O[C@@H]([S-])[C@H](OC(C)=O)[C@@H](OC(C)=O)[C@@H]1OC(C)=O.CC[PH+](CC)CC.[Au]", "val": 0.85}

Let us move to another entry and its Pathogen Box screen signal/noise ratio.
Record CNc1nnc(Sc2cnn(-c3ccccc3)c(=O)c2Cl)s1 , field Pathogen Box screen signal/noise ratio: 4.7

###

Biological target: Mycobacterium thermoresistible (Mtr) LpqY (Mycolicibacterium thermoresistibile)
Assay type: binding
Conditions: single dose MST screen against LpqY
The compounds listed here are annotated with their Pathogen Box screen signal/noise ratio.

{"compound": "CCOc1ccc2cc(-c3nn(CC4CCN(C)CC4)c4ncnc(N)c34)ccc2c1", "Pathogen Box screen signal/noise ratio": 1.2}
{"compound": "COc1cc(C2=NCCN2)ccc1-c1cn(-c2cccc(C3=NCCN3)c2)nn1", "Pathogen Box screen signal/noise ratio": 8.0}
{"compound": "OC[C@H]1O[C@@H](n2c3ccc(Cl)cc3c3c(-c4cc5ccccc5o4)ncnc32)C(O)[C@H]1O (some centres unmarked)", "Pathogen Box screen signal/noise ratio": 1.1}
{"compound": "CNC(=O)c1cc(S(=O)(=O)N2CCN(c3ccccn3)CC2)cs1", "Pathogen Box screen signal/noise ratio": 0.5}

Switching to the query record.
// C[C@H]1COc2c(N3CCN(C)CC3)c(F)cc3c(=O)c(C(=O)O)cn1c23 : Pathogen Box screen signal/noise ratio value = 0.9

###

Molecular target: Mycobacterium thermoresistible (Mtr) LpqY (Mycolicibacterium thermoresistibile)
Type: binding
Conditions: single dose MST screen against LpqY
Class (by Pathogen Box screen signal/noise ratio) -- lower range: < 0.5; middle range: ≥ 0.5 and < 1; upper range: ≥ 1

Q: Classify this compound: CCN(CC)S(=O)(=O)c1ccc(C(=O)Nc2cc(C)nn2-c2nc(C)c(C)c(=O)[nH]2)cc1
A: lower range

Q: Quick check: band for CC(C)(C)C(=O)N(CCCCCCN1C[C@H](O)[C@@H](O)[C@H](O)[C@H]1CO)C1CCCCCC1
A: upper range

Q: Lab note: which band did CC(=O)NCC1CN(c2ccc(-c3ccc(CNCc4cn[nH]n4)cc3)c(F)c2)C(=O)O1 (stereo not drawn) land in?
A: lower range

Q: Lab note: which band did CC(=O)NCC1CN(c2ccc(-c3ccc(CO)cc3)c(F)c2)C(=O)O1 (stereo not drawn) land in?
A: middle range

Q: Category of CC(C)(CN)c1nc(-c2ccc(Cl)c(O)c2)c(-c2ccnc(N)n2)[nH]1 :
A: upper range

Q: Into which bin does this compound go? CS(=O)(=O)c1cccc(-c2cnc3[nH]cc(-c4ccc(CCC(=O)O)cc4)c3c2)c1
A: upper range

Q: Any idea which band CCCn1c(NC(=O)c2ccc3ccccc3n2)nc2ccccc21 is in?
A: middle range

Q: Field: class (Pathogen Box screen signal/noise ratio) — entry: COc1ccc2nc(C)cc(OCC(=O)NCc3ccccc3)c2c1
A: lower range

Q: Returns: class label. Input: NCCCC(N)(C(=O)O)C(F)F (stereo not drawn)
A: lower range

Q: Which Pathogen Box screen signal/noise ratio category applies to COc1ccc(Nc2ccccc2NC(=O)c2ccc(O)nc2)cc1 here?
A: upper range

Q: Class (by measured Pathogen Box screen signal/noise ratio) for N#Cc1ccc(-c2cnc(N)c(-c3ccc(C(N)=O)cc3)n2)cc1
A: upper range

Q: Class (by measured Pathogen Box screen signal/noise ratio) for CO[C@@H](C(=O)N1Cc2[nH]nc(NC(=O)c3ccc(N4CCN(C)CC4)cc3)c2C1)c1ccccc1
A: middle range

Q: Kindly identify the class of COc1ccccc1OCCCCn1c(C2CC2)nc2ccccc21 .
A: upper range

Q: Please classify: CCc1c(C)nc(-n2nc(C)cc2NC(=O)c2ccccc2SC)[nH]c1=O
A: middle range

Q: Assign a bin to CN1CCN(CCCOc2ncc(Nc3ncc(-c4ccc(C(F)(F)F)c(F)c4)nc3C(N)=O)cn2)CC1
A: upper range

Q: Sort into band: CS(=O)(=O)c1ccccc1C(=O)N(Cc1ccccc1)c1ccccc1
A: upper range

Q: Form: Item = CCc1ccc(S(=O)(=O)Nc2cc(CN3CCN(CCC(C)C)CC3)ccc2C)cc1 ; Class = ?
A: middle range

Q: Hello team, could you let me know which band the following compound falls into: CC(C)(C)C1CCC(CC2=C(O)C(=O)c3ccccc3C2=O)CC1 (stereo not drawn)
A: upper range

Q: Which band does CC1CCCN(C(=O)C(C)Nc2cc(Cl)ccc2N2CCOCC2)C1 (stereo not drawn) fall in?
A: middle range

Q: Which bin, given its Pathogen Box screen signal/noise ratio, does O=C(c1[nH]nc2c1CCCC2)N1CCN(Cc2ccc3c(c2)OCO3)CC1 occupy?
A: upper range

Q: Field: class (Pathogen Box screen signal/noise ratio) — entry: CC(C)(C)c1cc(C(=O)Nc2cccnc2)cc(C(=O)Nc2cccnc2)c1
A: upper range

Q: Which category does the recorded Pathogen Box screen signal/noise ratio put COC(=O)c1ccc(F)cc1NS(=O)(=O)c1cccc(-c2cnn(Cc3ccccc3)c2)c1 in?
A: upper range

Q: Entry c1ccc(C[C@@H]2CN(c3nccc(Oc4ccc(-n5ccnc5)cc4)n3)CCN2)cc1 belongs to which category?
A: lower range

Q: Dear colleague, I would appreciate it if you could identify the bin for O=C(Nc1nnc(-c2ccc(Cl)s2)o1)c1ccc(Cl)s1 and reply at your convenience.
A: middle range

Q: Categorize the following entry: CN(C)CCNC(=O)N1CCCN(c2ncnc3cc(-c4ccccc4)sc23)CC1
A: lower range

Q: // return the class label for CN1CCCN(C(c2ccccc2)c2ccc(Cl)cc2)CC1 (stereo not drawn)
A: middle range

###

Target: Mycobacterium thermoresistible (Mtr) LpqY (Mycolicibacterium thermoresistibile, UniProt G7CES0)
Assay type: binding
Conditions: single dose MST screen against LpqY
Rule: measured Pathogen Box screen signal/noise ratio below 1 gets t; anything equal to or greater than 1 gets f.

{"compound": "Cc1ccc(S(=O)(=O)n2cc(-c3ccnc(N)c3)c3cc(Br)cnc32)cc1", "class": "f"}

Q: Lab note: Pathogen Box screen signal/noise ratio threshold 1. Does this compound come in strictly under it? O=C(C1CCN(c2cc(-n3cccc3)ncn2)CC1)N1CCc2ccccc2C1
A: t

Q: Please check: Pathogen Box screen signal/noise ratio for O=C(Nc1nnc(-c2ccc(Cl)cc2)o1)c1cccc(C(F)(F)F)c1 , strictly under 1 or not?
A: t

Q: Is Pathogen Box screen signal/noise ratio strictly under 1 for the entry COc1ccc(-c2cncc3ccc(C(=O)NCCCn4ccnc4)nc23)cc1 ?
A: f

###

Target: Mycobacterium thermoresistible (Mtr) LpqY (Mycolicibacterium thermoresistibile, UniProt G7CES0)
Type: binding
Settings: single dose MST screen against LpqY
assay-metric: Pathogen Box screen signal/noise ratio

Some solved entries appear below for comparison.
{"molecule": "Nc1ccc2ncnc(Nc3ccc(OCc4cccc(F)c4)c(Cl)c3)c2c1", "Pathogen Box screen signal/noise ratio": 0.8}
{"molecule": "COc1ccc(CCN2CCC(NCc3cccc(N(C)C)c3)CC2)cc1", "Pathogen Box screen signal/noise ratio": 0.8}

According to the records, this molecule CC1=Nc2ccc(Cl)cc2C(O)(c2ccc(C)cc2)N1CCN1CCCCC1 (stereo not drawn) displays Pathogen Box screen signal/noise ratio of 0.8

###

Measured Pathogen Box screen signal/noise ratio, listed per entry for reference.
Target: Mycobacterium thermoresistible (Mtr) LpqY (Mycolicibacterium thermoresistibile, UniProt G7CES0)
Assay type: binding
Conditions: single dose MST screen against LpqY
Lab note: record the figure alone, no unit after it.

Completed entries (count: 2):
{"structure-smiles-string": "COc1ccc(-c2onc(C(F)(F)F)c2-c2ccc(Cl)cc2)c(O)c1", "Pathogen Box screen signal/noise ratio": 0.9}
{"structure-smiles-string": "C[C@]1(O)C[C@@H](c2nc(-c3ccc4ccc(-c5ccccc5)nc4c3)c3c(N)nccn32)C1", "Pathogen Box screen signal/noise ratio": 0.9}

For reference, reported Pathogen Box screen signal/noise ratio for O=C(Nc1ccccc1-c1nc2c(C(=O)O)cccc2o1)c1ccccc1 stands at 0.9

###

Biological target: Mycobacterium thermoresistible (Mtr) LpqY (Mycolicibacterium thermoresistibile, UniProt G7CES0)
Format: binding
Settings: single dose MST screen against LpqY
Reported Pathogen Box screen signal/noise ratio values for a set of compounds
Format: numeric value only, no unit, no commentary.

{"compound": "COc1ccccc1CNC(=O)c1cc(C2CC2)nc2c1cnn2C(C)C [MMV020517]", "assay-metric": "Pathogen Box screen signal/noise ratio", "val": 2.3}
{"compound": "CC(=O)Nc1ccc(-c2noc(CC3CCCN(Cc4cccc(F)c4C)C3)n2)cc1 (stereo not drawn) [MMV689061]", "assay-metric": "Pathogen Box screen signal/noise ratio", "val": 0.9}

Would you kindly look at the next entry?
Data point: Cc1cc(O)nc(-n2nc(C)cc2C)n1 [MMV393995] ; Pathogen Box screen signal/noise ratio = 0.65

All figures here come from paper PMC9579956.
